- System name: S. pneumoniae Topoisomerase IV ATPase (ParE) (Streptococcus pneumoniae serotype 4, UniProt Q59961)
- Sequence (Q59961 whole entry): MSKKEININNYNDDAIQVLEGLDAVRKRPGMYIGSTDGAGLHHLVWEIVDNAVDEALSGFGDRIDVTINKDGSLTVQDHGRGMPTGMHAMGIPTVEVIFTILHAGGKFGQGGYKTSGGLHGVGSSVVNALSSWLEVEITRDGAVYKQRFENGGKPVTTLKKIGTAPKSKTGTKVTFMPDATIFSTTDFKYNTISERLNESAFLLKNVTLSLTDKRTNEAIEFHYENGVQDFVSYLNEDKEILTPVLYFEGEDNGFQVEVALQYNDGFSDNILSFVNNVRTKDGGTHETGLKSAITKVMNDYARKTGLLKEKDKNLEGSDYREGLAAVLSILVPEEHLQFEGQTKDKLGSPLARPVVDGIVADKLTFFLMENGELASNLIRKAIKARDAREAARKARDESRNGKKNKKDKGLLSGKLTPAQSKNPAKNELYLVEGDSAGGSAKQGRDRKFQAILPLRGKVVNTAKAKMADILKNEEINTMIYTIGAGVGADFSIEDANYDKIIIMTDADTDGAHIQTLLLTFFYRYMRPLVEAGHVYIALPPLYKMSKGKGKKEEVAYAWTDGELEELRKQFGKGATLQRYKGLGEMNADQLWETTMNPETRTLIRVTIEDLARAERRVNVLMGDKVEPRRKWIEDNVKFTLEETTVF
- Method: S. pneumoniae Topoisomerase IV ATPase inhibition
- Format: biochemical
- Condition: values marked * are an average of two or more data points, read-out: % Inh (13 μM) of S. pneumoniae Topoisomerase IV ATPase
Overview of reported inhibition at 13 µM across a group of compounds:
Property name: inhibition at 13 µM (%)

>>> measurement("O=C(O)c1cncc(-c2cnc(Nc3ccc(F)c(Cl)c3)nc2NCCCN2CCOCC2)c1 [Example 233]")
75.4
>>> measurement("O=C(O)Cn1nccc1-c1cnc(Nc2ccc(F)c(Cl)c2)nc1-n1ccc(C(F)(F)F)n1 [Example 1137]")
100
>>> measurement("Cc1cc(C(F)(F)F)nn1-c1nc(Nc2cccc(Cl)c2)ncc1-c1cncc(C(=O)O)c1 [Example 744]")
100
>>> measurement("COCCCNc1nc(Nc2ccc(F)c(Cl)c2)ncc1-c1nc(-c2ccc(C#N)cc2)cs1 [Example 498]")
41
>>> measurement("Cn1ccnc1COc1ncc(-c2cnc(Nc3ccc(F)c(Cl)c3)nc2-n2ccc(C(F)(F)F)n2)cc1C(=O)O [Example 961]")
100
>>> measurement("Cc1cc(C(F)(F)F)nn1-c1nc(Nc2ccc(F)c(Cl)c2)ncc1-c1cnc(OCCN2CCOCC2)c(C(=O)O)c1 [Example 1141]")
100
>>> measurement("CCOC(=O)/C=C/c1cccc(-c2cnc(Nc3ccc(F)c(Cl)c3)nc2N[C@@H]2CCOC2)c1 [Example 169]")
34.2

Sourced from patent US20100137313A1
